Give measured Tm for each item. Keep answers brief.
- assay.comment: melting temperature; fluorescence melt of hairpins on a sequencing array, two-state fit, raised by 9.35 °C to match UV melts
- test.settings: sodium 0.088 M
Answers are plain numbers, in °C.

Hi! Can you tell me Tm for each of these sequences?
1. GTTGCTGAAAAGCAAC ((((((....))))))
2. GTTACGGGAAACCGCAAC (((.(((....))).)))
3. GATCTGGACTCAGATC ((((((....))))))
4. GATCCGCCCCCGGATC ((((((....))))))
5. CGTCCGCGGAAACGCACG (((..(((....))))))
6. GCCTAGCGAAAGCTATGC ((.((((....)))).))

RESULT:
66
41.7
53.1
56.5
33.5
46.2

====

- assay.comment: melting temperature; fluorescence melt of hairpins on a sequencing array, two-state fit, raised by 9.35 °C to match UV melts
- test.settings: sodium 0.088 M
Use Tm to assign classes; range list: bottom end (below 40 °C), midrange (40 °C to below 50 °C), top end (50 °C or more)

Look over these answered cases.
GCACACCGAAAGGTCTGC (((.(((....))).))) | midrange
GGTGATGGAAACACCACC ((((.((....)).)))) | midrange
GCGGAGCTCCGC ((((....)))) | top end
GGTTTCGGAAACGAAACC (((((((....))))))) | top end
GGGCGGCCGAAAGGCCCC (((..(((....)))))) | top end
GTTCCGGGAAACCGGAGC (.(((((....))))).) | top end
GCCCCGCGAAAGCTCGGC (((..((....))..))) | bottom end
GGATCGTCGAAAGACTCC (((..(((....)))))) | bottom end
GATCTGGGACCAGATC ((((((....)))))) | top end
GGCGTTGGAAACAACGTC (.(((((....))))).) | top end

QUERY: Textbook exercise: identify the category of the sequence given here, GCACAGCGAAAGCTAGGC ((..(((....)))..)) , according to its measured value.
RESULT: midrange

====

Please go through the items and note down their Tm.
- assay.comment: melting temperature; fluorescence melt of hairpins on a sequencing array, two-state fit, raised by 9.35 °C to match UV melts
- test.settings: sodium 0.088 M
One number for each entry, in °C.

Field: example entries. Status: answers known.
GCCGAGCGAAAGCCCTGC ((.(.((....)).).)) | 33.5
GGGGAAGGAAACCTCCCC (((((.(....).))))) | 47.8
GGCTCCCGAAAGGGTGCC (((.(((....))).))) | 67.6
GATCTGACCGCAGATC ((((((....)))))) | 48
GCGAGCTATCGC ((((....)))) | 60.8
GATCCCCAAGGGATC ((((((...)))))) | 58.9
GTGATGGAAACATCAC ((((((....)))))) | 56.7
GACTCCCCGAAAGGGGTC (((..(((....)))))) | 31.4

Quick request: Tm for each listed item, please.
1. GCGATCGATCGC ((((....))))
2. GAAAGGGAAACCTTTC ((((((....))))))
3. GCTATTTCGAAAGAAAGC (((..(((....))))))
4. GCGGGAGCCGC ((((...))))

RESULT:
56.5
47
28.3
54.9

Each sequence below has a reported value. Please supply its Tm.
1. GAACACACGAAAGTGTTC (((..(((....))))))
2. GCCGGGCGAAAGCCCTGC ((.((((....)))).))
3. GCCAAGGGAAACCCTGGC ((((.((....)).))))
4. GTTGGGGGAAACCTCAGC (.((.((....)).)).)
5. GTTCTCCGAAAGGAAAAC (((.(((....))).)))
6. GAAAGTGGAAACACTTTC (((((((....)))))))
7. GTTAGACGAAAGTCCAAC (((.(((....))).)))

RESULT:
46.2
57.2
52.2
31
35.5
56.8
38

Need Tm for each of these sequences.
1. GATCTCGGGCGAGATC ((((((....))))))
2. GCATGAGGAAACCCATGC (((((.(....).)))))

RESULT:
1. 55.2
2. 48.6
